Assay: soluble on expression in E. coli; label from the status in PepcDB or PDB records
OBSERVATION_TYPE: soluble on expression in E. coli

Examples with answers:
| SEQUENCE_CONTENT | OBSERVATION_TYPE | MEASURED |
| --- | --- | --- |
| MGSDKIHHHHHHMTAIANRYEFVLLFDVENGNPNGDPDAGNMPRIDPETGHGLVTDVCLKRKIRNHVALTKEGAERFNIYIQEKAILNETHERAYTACDLKPEPKKLPKKVEDAKRVTDWMCTNFYDIRTFGAVMTTEVNCGQVRGPVQMAFARSVEPVVPQEVSITRMAVTTKAEAEKQQGDNRTMGRKHIVPYGLYVAHGFISAPLAEKTGFSDEDLTLFWDALVNMFEHDRSAARGLMSSRKLIVFKHQNRLGNAPAHKLFDLVKVSRAEGSSGPARSFADYAVTVGQAPEGVEVKEML | soluble on expression in E. coli | not soluble |
| MAEVERQDKYLRQRNKYRFHIIPDGNCLYRAVSKTVYGDQSLHRELREQTVHYIADHLDHFSPLIEGDVGEFIIAAAQDGAWAGYPELLAMGQMLNVNIHLTTGGRLESPTVSTMIHYLGPEDSLRPSIWLSWLSNGHYDAVFDHSYPNPEYDNWCKQTQIQKKRDEELAKSMAISLSKMYIEQNACS | soluble on expression in E. coli | soluble |
| MIEQPDSKSAKPLYKQLEAALKEAIARGEYKPGQQIPTENELSVRWQVSRVTVRKALDALTRENLLTRVSGKGTFVSGEKFQRSMTGIMSFSELCQSQGRRPGSRTIKSVFESVDDETKALLNMNDGEKAVVIERIRYADDVAVSLETVHLPPRFAFLLDEDLNNHSLYECLREKYHLWFTHSRKMIELVYASFEVAHYLGVNEGYPLILIKSEMIDNKGELSCVSQQLIVGDKIRFTV | soluble on expression in E. coli | not soluble |
| MKTLEKRMKALDKRIMKFGKSLEGRLDARLIESALDYIHYSERFLAFEILCTYIEDFDVRLTEQESREISFINKEFEIESTSD | soluble on expression in E. coli | not soluble |
| MGSSHHHHHHSSGLVPRGSHMASMTGGQQMGRGSMTTHLQAKATLHNGVEMPWFGLGVFQVEEGSELVNAVKTAIVHGYRSIDTAAIYGNEAGVGEGIREGIEEAGISREDLFITSKVWNADLGYEETLAAFETSLSKLGLDYLDLYLIHWPVEGKYKEAWRALETLYKEGRIKAIGVSNFQIHHLEDLMTAAEIKPMINQVEFHPRLTQKELIRYCQNQGIQMEAWSPLMQGQLLDHPVLADIAQTYNKSVAQIILRWDLQHGIITIPKSTKEHRIKENASVFDFELTQDDMNRIDALNENLRVGPDPDNFDF | soluble on expression in E. coli | soluble |

I'd like to know its soluble on expression in E. coli. The sequence in question is MSLDENLIEEIKLADDISKGYNAALNYLSYQLRTRKEVEDKLRSLDIHEDYISEIINKLIDLDLINDKNYAESYVRTMMNTSDKGPKVIKLNLSKKGIDDNIAEDALILYTDKLQVEKGVTLAEKLANRYSHDSYRNKQNKIKQSLLTKGFSYDIIDTIIQELDLIFDDDTEREILLEKANKLWSRYDNLDIKKRKFKIQQALFKQGFSFSNITSALDEIEDTNEGHHHHHH
soluble

And what about the sequence MGSDKIHHHHHHMLNPLWLKTFITLVETGHFTQTASKLFMTQPGVSQHLNKLEQACGHQLLIRSRSGIELTEAGERLYQYALSQARAEAALLDSLDEDNPFSGSCRLACSGSLAQLLYPKLLALQAAHPGLKVHMEAAPNARIINEVQQGDKDLGIITAPPPRGLFSDTDIGTQALCLVLPASSEATTDDASLPSINELKVLGLISHPDAAHYLSLFFAHSGSPGYQNAFAEDFPISSYINQLGQILLPVSMGLGFTVLPLSVVEQFSERDKLRVCVGLERVFEPLYLIHKRQRQLPARFDTIRSLIQSVLTSTTDSPQ ?
not soluble
